In this section, each of the compounds is paired with its reported MSRA (% modification) 5.0 μM 0.017 hr.
System: GDP-loaded KRAS (1-169) G12C, C51S, C80L, C118S (Homo sapiens, UniProt P01116, C118S/C51S/C80L/G12C)
Construct: GDP-loaded KRAS (1-169) G12C, C51S, C80L, C118S
Protocol details: Mass Spectrometry Reactivity Assay (MSRA): covalent adduct of compound and KRAS G12C, Percent Modification
Type: binding
Applied conditions: 5.0 μM compound, 0.017 hr
Recorded endpoint: MSRA (% modification) 5.0 μM 0.017 hr (%)

C=CC(=O)N1CCN(c2nc(Oc3cccc4c3CCN(C)C4)nc3c(Oc4c(C)ccc5[nH]ncc45)nccc23)CC1 [Example 38I] = 55
C=CC(=O)N1CCN(c2nc(O[C@@H]3CN(C)C[C@H]3OC)nc3c(Oc4c(C)ccc5[nH]ncc45)nc(Cl)cc23)CC1 [Example 35G] = 75
C=CC(=O)N1CCN(c2nc(O[C@@H]3CN(CCO)C[C@H]3OC)nc3c(Oc4c(Cl)c(F)cc5[nH]ncc45)nccc23)CC1 [Example 46I] = 70

###

System: GDP-loaded KRAS (1-169) G12C, C51S, C80L, C118S (Homo sapiens, UniProt P01116, C118S/C51S/C80L/G12C)
Construct: GDP-loaded KRAS (1-169) G12C, C51S, C80L, C118S
Protocol details: Mass Spectrometry Reactivity Assay (MSRA): covalent adduct of compound and KRAS G12C, Percent Modification
Type: binding
Applied conditions: 10 μM compound, 0.50 hr
In this section, each of the molecules is paired with its reported MSRA (% modification) 10 μM 0.50 hr.
Recorded endpoint: MSRA (% modification) 10 μM 0.50 hr (%)

C=CC(=O)N1CCN(c2nc(OCCN(C)C)nc3c(Oc4c(Cl)c(C)cc5[nH]ncc45)cc(Cl)cc23)CC1 [Example 13E] = 79
C=CC(=O)N1CCN(c2ncnc3c(Nc4c(C)ccc5[nH]ncc45)nccc23)CC1 = 5
C=CC(=O)N1CCN(c2nc(OC[C@@H]3CCC(=O)N3)nc3c(Oc4c(C)ccc5[nH]ncc45)cccc23)CC1 [Example 11F] = 55
C=CC(=O)N1CCN(c2nc(NCc3nncn3C)nc3c(Oc4c(C)ccc5[nH]ncc45)cccc23)CC1 [Example 02F] = 14
C=CC(=O)N1CCN(c2ncnc3c(Oc4c(C)ccc5[nH]ncc45)nc(C#N)cc23)CC1 [Example 18A] = 34
C=CC(=O)N1CCN(c2ncnc3c(Oc4c(F)c(C)c(F)c5[nH]ncc45)nccc23)CC1 [Example 16A] = 7
C=CC(=O)N1CCN(c2ncnc3c(Oc4c(Br)c(C)cc5[nH]ncc45)nccc23)CC1 [Example 13A] = 69
C=CC(=O)N1CCN(c2nc(OC[C@@H]3CCCN3C)nc3c(Oc4c(Cl)c(C)cc5[nH]ncc45)nccc23)CC1 [Example 09H] = 83
C=CC(=O)N1CCN(c2nc(OC[C@H]3CN(C)C[C@@H]3OC)nc3c(Oc4c(Cl)c(F)cc5[nH]ncc45)nc(Cl)cc23)CC1 [Example 18G] = 84
C=CC(=O)N1CCN(c2nc(N3CC(N(C)C)C3)nc3c(Oc4c(Cl)c(C)cc5[nH]ncc45)cc(Cl)cc23)CC1 [Example 11E] = 68
C=CC(=O)N1CCN(c2nc(N3CC(N(C)C)C3)nc3c(Oc4c(C)ccc5[nH]ncc45)nccc23)CC1 [Example 02B] = 30
C=CC(=O)N1CCN(c2ncnc3c(Oc4c(C)ccc5[nH]ncc45)cccc23)C[C@H]1C [Example 03C] = 8
C=CC(=O)N1CCN(c2ncnc3c(Oc4c(C)c(Cl)cc5[nH]ncc45)nccc23)CC1 [Example 14A] = 67
C=CC(=O)N1CCN(c2ncnc3c(Oc4cc(O)cc5ccccc45)nccc23)CC1 = 20
C=CC(=O)N1CCN(c2nc(N3CC(N(C)C)C3)nc3c(Oc4c(C)ccc5[nH]ncc45)nc(C)cc23)[C@@H](C)C1 [Example 05B] = 15
